Origin of the recorded values: patent US20180171001A1

# STUDY_TARGET: Env of HIV-1 strain REJO4541.67 (HIV-1)
# ASSAY_NAME: cell-based or functional assay
Catalogue of neutralization IC50 values
MEASURED_PARAMETER: neutralization IC50 (µg/mL)

1. 8ANC195 IgG (antibody, V domains shown) VH: QIHLVQSGTEVKKPGSSVTVSCKAYGVNTFGLYAVNWVRQAPGQSLEYIGQIWRWKSSASHHFRGRVLISAVDLTGSSPPISSLEIKNLTSDDTAVYFCTTTSTYDKWSGLHHDGVMAFSSWGQGTLISVSA VL: DIQMTQSPSTLSASIGDTVRISCRASQSITGNWVAWYQQRPGKAPRLLIYRGAALLGGVPSRFSGSAAGTDFTLTIGNLQAEDFGTFYCQQYDTYPGTFGQGTKVEV = 0.08
2. γ3κ11 (antibody, V domains shown) VH: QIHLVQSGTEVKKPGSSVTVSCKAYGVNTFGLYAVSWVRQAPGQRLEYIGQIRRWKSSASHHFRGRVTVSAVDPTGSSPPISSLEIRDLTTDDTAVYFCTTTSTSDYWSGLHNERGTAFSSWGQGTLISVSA VL: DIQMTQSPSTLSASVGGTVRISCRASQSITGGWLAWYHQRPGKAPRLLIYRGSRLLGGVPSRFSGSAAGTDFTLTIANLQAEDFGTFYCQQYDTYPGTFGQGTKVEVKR = 0.091
